# system.name: T1, UbaA, E1-like SAMP-activating enzyme of Haloferax volcanii, purified wild type (Haloferax volcanii, UniProt D4GSF3 1-270)
# T1 sequence (looked up): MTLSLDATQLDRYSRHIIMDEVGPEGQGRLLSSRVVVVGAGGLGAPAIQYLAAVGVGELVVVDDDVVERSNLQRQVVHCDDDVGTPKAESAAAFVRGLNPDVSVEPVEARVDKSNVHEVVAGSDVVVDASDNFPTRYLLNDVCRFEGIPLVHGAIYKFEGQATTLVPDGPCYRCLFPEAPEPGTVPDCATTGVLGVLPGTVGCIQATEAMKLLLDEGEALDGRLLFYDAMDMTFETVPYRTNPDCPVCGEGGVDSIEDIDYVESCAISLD
# method: ITC
parameter.measured: Kd (µM)
Response body: numeric value in µM, unit text excluded.

What the record says about SAMP1, small ubiquitin-like archaeal modifier protein 1, purified (natural protein, Haloferax volcanii, UniProt D4GUF6 1-87, looked up) MEWKLFADLAEVAGSRTVRVDVDGDATVGDALDALVGAHPALESRVFGDDGELYDHINVLRNGEAAALGEATAAGDELALFPPVSGG : Kd is 4.1

# credit: paper PMC5053900
